readoutKind: melting point

Recorded results for 3 compounds are shown here.
compound	result
COc1ccc(F)cc1C(C)(C)CC(O)(Cn1[nH]c(=O)c2ccccc21)C(F)(F)F (stereo not shown)	141 to 144 °C
CC(C)(CC(O)(Cn1ccc(=O)c2ccccc21)C(F)(F)F)c1cc(F)ccc1OC(F)F (stereo not shown)	150 to 155 °C
CCOc1ccc(F)cc1C(C)(C)CC(O)(Cn1ccc(=O)c2ccccc21)C(F)(F)F (stereo not shown)	195 to 196 °C

Then this compound:
Problem: Consider the compound shown here: COc1ccc(F)cc1C(C)(C)CC(O)(Cn1cc(C)c(=O)c2ccccc21)C(F)(F)F (stereo not shown) What is its recorded melting point?
Solution: > 225 °C
